The measured values listed here are drawn from patent US20060257938A1.

Assay: Probe fluorescence ratio response to linolenic acid relative to ADIFAB2
Format: binding
Details: response relative to ADIFAB2
Kindly supply the reported DR/DR LNA values for the records listed here.
Answer using only a numeral; do not append any unit.

Exam item: Suppose we examine the molecule 113M, 72A (protein, listed as Rattus norvegicus, PEPTIDE (1)...(131) wild-type rat intestinal fatty acid binding protein) AFDGTWKVDRNENYEKFMEKMGINVVKRKLGAHDNLKLTITQEGNKFTVKESSNFRNIDVVFELGVDFAYSAADGTELTGTWTMEGNKLVGKFKRVDNGKELIAVREISGNEMIQTYTYEGVEAKRIFKKE ; what DR/DR LNA value has been reported?
Marked response: 1.38

Exam item: Please do the same for 51Q1, 72A (protein, listed as Rattus norvegicus, PEPTIDE (1)...(131) wild-type rat intestinal fatty acid binding protein) AFDGTWKVDRNENYEKFMEKMGINVVKRKLGAHDNLKLTITQEGNKFTVKQSSNFRNIDVVFELGVDFAYSAADGTELTGTWTMEGNKLVGKFKRVDNGKELIAVREISGNELIQTYTYEGVEAKRIFKKE as well.
Marked response: 1.65

Exam item: Follow-up item: 14R, 72A (protein, listed as Rattus norvegicus, PEPTIDE (1)...(131) wild-type rat intestinal fatty acid binding protein) AFDGTWKVDRNENREKFMEKMGINVVKRKLGAHDNLKLTITQEGNKFTVKESSNFRNIDVVFELGVDFAYSAADGTELTGTWTMEGNKLVGKFKRVDNGKELIAVREISGNELIQTYTYEGVEAKRIFKKE
Marked response: 0.51

Exam item: Moving on to the next molecule: 115K3, 72A (protein, listed as Rattus norvegicus, PEPTIDE (1)...(131) wild-type rat intestinal fatty acid binding protein) AFDGTWKVDRNENYEKFMEKMGINVVKRKLGAHDNLKLTITQEGNKFTVKESSNFRNIDVVFELGVDFAYSAADGTELTGTWTMEGNKLVGKFKRVDNGKELIAVREISGNELIKTYTYEGVEAKRIFKKE
Marked response: 1.32

Exam item: Record: 38W, 72A (protein, listed as Rattus norvegicus, PEPTIDE (1)...(131) wild-type rat intestinal fatty acid binding protein) AFDGTWKVDRNENYEKFMEKMGINVVKRKLGAHDNLKWTITQEGNKFTVKESSNFRNIDVVFELGVDFAYSAADGTELTGTWTMEGNKLVGKFKRVDNGKELIAVREISGNELIQTYTYEGVEAKRIFKKE
Marked response: 1.336

Exam item: Another molecule: 72T 73Q 74A (protein, listed as Rattus norvegicus, PEPTIDE (1)...(131) wild-type rat intestinal fatty acid binding protein) AFDGTWKVDRNENYEKFMEKMGINVVKRKLGAHDNLKLTITQEGNKFTVKESSNFRNIDVVFELGVDFAYSTQAGTELTGTWTMEGNKLVGKFKRVDNGKELIAVREISGNELIQTYTYEGVEAKRIFKKE
Marked response: 2.850
